- subject_of_test: human EP1 receptor (Homo sapiens, UniProt P34995)
- Sequence (P34995 1-402): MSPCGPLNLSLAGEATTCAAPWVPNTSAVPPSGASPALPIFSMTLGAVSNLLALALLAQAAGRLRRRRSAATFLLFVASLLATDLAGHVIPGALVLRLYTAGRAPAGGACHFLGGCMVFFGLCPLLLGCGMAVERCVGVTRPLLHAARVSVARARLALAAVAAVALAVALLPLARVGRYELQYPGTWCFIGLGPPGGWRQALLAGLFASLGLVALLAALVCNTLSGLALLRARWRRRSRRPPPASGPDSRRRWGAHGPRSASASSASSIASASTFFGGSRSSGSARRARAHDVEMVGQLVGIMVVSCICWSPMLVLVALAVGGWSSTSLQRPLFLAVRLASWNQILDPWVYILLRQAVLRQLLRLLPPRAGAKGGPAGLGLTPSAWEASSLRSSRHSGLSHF
measured_endpoint: Ki

// lookup Ki for Cc1c(-c2ccccc2)nn(-c2nc(C(=O)O)cs2)c1-c1ccccc1 [Exp. 30] ≤ 300 nM
